# Lookup of reported pIC50 keyed by entry
# study system: Cholinesterase (Homo sapiens)
# Sequence (P06276 whole entry): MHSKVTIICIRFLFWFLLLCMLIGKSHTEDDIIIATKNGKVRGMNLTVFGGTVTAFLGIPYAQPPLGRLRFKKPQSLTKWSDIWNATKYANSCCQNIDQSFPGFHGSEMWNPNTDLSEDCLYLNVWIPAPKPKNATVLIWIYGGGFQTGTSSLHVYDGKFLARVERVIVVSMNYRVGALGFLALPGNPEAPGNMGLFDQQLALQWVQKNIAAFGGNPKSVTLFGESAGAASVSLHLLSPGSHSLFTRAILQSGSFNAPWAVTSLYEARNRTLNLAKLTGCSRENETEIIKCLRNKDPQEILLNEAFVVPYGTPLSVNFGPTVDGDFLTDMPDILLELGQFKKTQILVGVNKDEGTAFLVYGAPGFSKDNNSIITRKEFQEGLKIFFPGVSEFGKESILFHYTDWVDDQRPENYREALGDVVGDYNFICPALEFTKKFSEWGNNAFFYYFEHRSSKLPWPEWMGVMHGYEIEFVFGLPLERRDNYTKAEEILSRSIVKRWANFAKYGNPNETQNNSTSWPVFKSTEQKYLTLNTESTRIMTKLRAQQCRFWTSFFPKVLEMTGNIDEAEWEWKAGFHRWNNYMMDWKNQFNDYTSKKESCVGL
# experiment: Inhibition of BChE (unknown origin) using butyryl thiocholine iodide as substrate after 30 mins by Ellman's method
pIC50: −log10 of the molar value.
measured quantity: pIC50

item_smiles=N#Cc1ccc(NC(=S)NNC=C2C(=O)NC(=O)NC2=O)cc1 measured_quantity=pIC50 assay_value=3.64
item_smiles=COc1ccc(NC(=S)NNC=C2C(=O)NC(=S)NC2=O)cc1 measured_quantity=pIC50 assay_value=4.25
item_smiles=O=C1NC(=O)C(=CNNC(=O)Nc2ccccc2)C(=O)N1 measured_quantity=pIC50 assay_value=4.41
item_smiles=O=C1NC(=O)C(=CNNC(=S)Nc2cccc(C(F)(F)F)c2)C(=O)N1 measured_quantity=pIC50 assay_value=3.87
item_smiles=O=C1NC(=S)NC(=O)C1=CNNC(=S)Nc1ccc(F)cc1 measured_quantity=pIC50 assay_value=4.24
item_smiles=Cc1cccc(Cl)c1NC(=S)NNC=C1C(=O)NC(=O)NC1=O measured_quantity=pIC50 assay_value=5.06
item_smiles=NC(=S)NNC=C1C(=O)NC(=O)NC1=O measured_quantity=pIC50 assay_value=4.25
item_smiles=O=C1NC(=S)NC(=O)C1=CNNC(=S)Nc1ccc(C(F)(F)F)cc1 measured_quantity=pIC50 assay_value=5.09
item_smiles=O=C(NNC=C1C(=O)NC(=S)NC1=O)Nc1ccccc1 measured_quantity=pIC50 assay_value=5.48
item_smiles=CC(=O)NC=C1C(=O)NC(=O)NC1=O measured_quantity=pIC50 assay_value=3.94
item_smiles=O=C1NC(=S)NC(=O)C1=CNNC(=S)Nc1ccc(Br)cc1 measured_quantity=pIC50 assay_value=4.16
item_smiles=O=C1NC(=S)NC(=O)C1=CNNC(=S)Nc1ccc(Cl)cc1 measured_quantity=pIC50 assay_value=4.12
item_smiles=O=C1NC(=S)NC(=O)C1=CNNC(=S)Nc1ccccc1 measured_quantity=pIC50 assay_value=4.24
